assay.overview: qHTS assay to identify aromatase inhibitors - cell viability counter screen (AID 743084);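 further: cells stimulated with testosterone during compound exposure; nearly all actives have a fitted effect of over 55% in size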
experimental.conditions: MCF-7 aro ERE viability, CellTiter-Fluor, 24 h; series mostly up to 70.3 µM
Results filed as inconclusive are left out. Calls of active or inactive are those of the source. The call rests on the fitted dose curve; in most records, active means well fitted cell-killing curve with a large enough effect in the repeat runs; inconclusive means weak or mixed curves, or effect the other way; inactive means no such curve, though single readings can be large or run the other way.
outcome.measure: outcome

CCc1nccnc1CC :: inactive
N[C@H]1CN(c2c(F)cc3c(=O)c(C(=O)O)cn(C4C[C@H]4F)c3c2Cl)CC12CC2 (stereo not given in full) :: inactive
CC(=O)CC(C)C :: inactive
O=C1CC2CC1C1CCCC21 (stereo not given) :: inactive
ClC(Cl)(Br)Br :: inactive

Go through the list and state outcome for each entry.
1. CC(C(=O)O)c1ccc(CC2CCCC2=O)cc1 (stereo not given)
2. CC1(C)CO[C@@H](CC(=O)O)CN1
3. N[C@H](C(=O)O)c1ccc(O)cc1
4. OC(CCN1CCCCC1)(c1ccccc1)C1CC2C=CC1C2 (stereo not given)
5. CCOC(=O)[C@H](CCc1ccccc1)N[C@@H](C)C(=O)N1[C@H](C(=O)O)C[C@@H]2CCC[C@@H]21

Ans.
1. inactive
2. inactive
3. inactive
4. inactive
5. inactive

// each listed molecule needs a value for outcome
1. Cc1ccc(Cl)cc1Cl
2. OC[C@]1(O)OC[C@@H](O)[C@H](O)[C@@H]1O
3. Cn1c(N)c(N=O)c(=O)n(C)c1=O

Ans.
["inactive", "inactive", "inactive"]

Please report outcome for every entry that follows.
1. CCOC(C)(C)C
2. O=C1CCCC(=O)C1

Ans.
["inactive", "inactive"]

----------
assay.overview: qHTS assay to identify small molecule phospholipidosis (PLD) inducers (AID 1259344)
experimental.conditions: HepG2 phospholipidosis, LipidTOX Red imaging, 24 h; series mostly up to 38.3 µM
Results filed as inconclusive are left out. Active and inactive are the calls of the source. The call rests on the fitted dose curve; in most records, active means well fitted activation curve with a large enough effect; inconclusive means small, poorly fitted or top-dose-only effect; inactive means flat fitted curve, though single readings scatter.
Pick one and only one: yes (1) for active, no (0) for inactive

These recorded examples may help you get a feel for the data.
c1ccc(CC2=NCCN2)cc1 :: no (0)
Nc1nc2c(ncn2COC(CO)CO)c(=O)[nH]1 :: no (0)
COc1c(N2C[C@@H]3CCCN[C@@H]3C2)c(F)cc2c(=O)c(C(=O)O)cn(C3CC3)c12 :: no (0)
COC(=O)[C@@H](N)Cc1ccc(O)c(O)c1 :: no (0)

Qu. State the result this test recorded for `O=C(O)COc1nn(Cc2ccccc2)c2ccccc12` .
Ans. no (0)

----------
study.target: Androgen receptor (Homo sapiens) (UniProt P10275)
Sequence (P10275 whole entry, looked up): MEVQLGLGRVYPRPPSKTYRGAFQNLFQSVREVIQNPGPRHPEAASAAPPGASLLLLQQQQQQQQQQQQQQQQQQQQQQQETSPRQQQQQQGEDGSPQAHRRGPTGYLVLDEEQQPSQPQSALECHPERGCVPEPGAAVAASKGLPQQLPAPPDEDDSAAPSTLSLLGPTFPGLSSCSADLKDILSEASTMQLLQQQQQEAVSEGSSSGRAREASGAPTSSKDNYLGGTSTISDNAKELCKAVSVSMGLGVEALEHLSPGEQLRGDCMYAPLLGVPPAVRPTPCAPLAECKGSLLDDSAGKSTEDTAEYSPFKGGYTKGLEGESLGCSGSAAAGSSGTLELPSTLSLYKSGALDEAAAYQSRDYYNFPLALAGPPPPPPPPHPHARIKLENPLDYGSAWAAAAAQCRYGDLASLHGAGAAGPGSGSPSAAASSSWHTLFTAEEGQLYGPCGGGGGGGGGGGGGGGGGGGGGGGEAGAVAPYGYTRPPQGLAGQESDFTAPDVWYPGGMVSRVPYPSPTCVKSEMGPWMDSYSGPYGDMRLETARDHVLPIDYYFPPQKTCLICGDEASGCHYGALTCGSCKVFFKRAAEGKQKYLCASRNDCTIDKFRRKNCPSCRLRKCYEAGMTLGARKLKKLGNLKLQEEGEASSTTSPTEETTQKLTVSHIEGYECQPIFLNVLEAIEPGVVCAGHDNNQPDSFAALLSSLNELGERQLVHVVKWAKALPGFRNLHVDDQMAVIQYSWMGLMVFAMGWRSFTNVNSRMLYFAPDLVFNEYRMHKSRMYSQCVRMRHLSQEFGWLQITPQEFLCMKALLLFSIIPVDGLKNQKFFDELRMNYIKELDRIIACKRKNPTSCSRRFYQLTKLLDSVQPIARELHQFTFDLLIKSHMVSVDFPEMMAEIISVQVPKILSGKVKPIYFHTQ
assay.overview: qHTS assay to identify small molecule agonists of the androgen receptor (AR) signaling pathway in the presence of an antagonist (AID 1259381); further: nearly all actives have a fitted effect of over 15% in size
experimental.conditions: MDA-kb2 MMTV-luciferase, AR agonist + nilutamide, 16 h; series mostly up to 42.5 µM
Active and inactive are the calls of the source. Calls come from the whole dose curve.
Your response should consist of one outcome taken from 1 = active, -1 = inactive

Example entries and their recorded answers appear below.
C=C(C)CS(=O)(=O)O :: -1
COC(=O)[C@@H](N)Cc1ccc(O)c(O)c1 :: -1

Qu. Per the assay record, what outcome was assigned to `CC(=O)CC(C)C` ?
Ans. -1

Qu. Test call for this molecule, please: `CCOC(=O)c1c(C)n(C)c2ccc(O)cc12`
Ans. -1

Qu. // outcome(item) with item = `N=C(N)c1ccc2cc(OC(=O)c3ccc(N=C(N)N)cc3)ccc2c1`
Ans. -1
